Data origin: the RNAGym collection of RNA variant scans (doi:10.1093/nar/gkz1192)

B1: CPEB3 Ribozyme (parent)
chain: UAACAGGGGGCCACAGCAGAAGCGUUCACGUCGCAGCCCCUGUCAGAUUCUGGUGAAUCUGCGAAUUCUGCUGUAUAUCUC

Variants of: B1
Assay: self-cleavage, relative activity (ratio to wild type); higher = more cleavage; in vitro, sequencing
Property: self-cleavage; scope: individual variants
Form field (numeric): enter value without unit.

Examples with answers:
G9A U54C
0.33
C23G U69C
0.08
U69C U78G
0.61
G42C U48A
0.13

--- query ---
# input State the recorded self-cleavage for this entry: G19U U48A
# output 0.2
